Where do the numbers come from? From ChEMBL document CHEMBL5154694.

- Experiment notes: Cytotoxicity against mouse RAW264.7 cells assessed as cell survival at 50 ug/ml incubated for 24 hrs by CCK-8 assay
- Format: toxicity, cell-based
- Assay context: at 50 µg/mL, read-out: Activity
Catalogue of molecules with associated viability at 24 h, 50 ug/ml
Readout kind: viability at 24 h, 50 ug/ml

[[record]]
line_notation = "O=C1c2ccccc2-[n+]2ccc3c([nH]c4ccc(Br)cc43)c21.[Br-]"
reported_measurement = "92.9%"

[[record]]
line_notation = "O=C(Nc1cccc2ccccc12)c1ccc2[nH]c3c4[n+](ccc3c2c1)-c1ccccc1C4=O.[Br-]"
reported_measurement = "98.4%"

[[record]]
line_notation = "Cc1ccc2[nH]c3c4[n+](ccc3c2c1)-c1ccccc1C4=O.[Br-]"
reported_measurement = "69.8%"

[[record]]
line_notation = "O=C1c2ccccc2-[n+]2ccc3c([nH]c4ccccc43)c21.[Br-]"
reported_measurement = "100%"


---

# hemolysis at 12.5 ug/ml per entry
- Experiment notes: Hemolytic activity in mouse erythrocytes assessed as hemolysis at 12.5 ug/ml relative to control
- Format: toxicity, cell-based, Erythrocyte
- Assay context: at 12.5 µg/mL, read-out: Activity
Readout kind: hemolysis at 12.5 ug/ml (%)

[[record]]
line_notation = "Cc1ccc2[nH]c3c4[n+](ccc3c2c1)-c1ccccc1C4=O.[Br-]"
reported_measurement = 0

[[record]]
line_notation = "O=C(Nc1cccc2ccccc12)c1ccc2[nH]c3c4[n+](ccc3c2c1)-c1ccccc1C4=O.[Br-]"
reported_measurement = 0

[[record]]
line_notation = "O=C1c2ccccc2-[n+]2ccc3c([nH]c4ccccc43)c21.[Br-]"
reported_measurement = 0

[[record]]
line_notation = "O=C1c2ccccc2-[n+]2ccc3c([nH]c4ccc(Br)cc43)c21.[Br-]"
reported_measurement = 0


---

- Tested on: Staphylococcus aureus
- Experiment notes: Antibacterial activity against methicillin-resistant Staphylococcus aureus ATCC 4330 after 16 to 18 hrs by microbroth dilution method
- Format: functional
- Assay context: time 16-18 hrs
Readout kind: MIC (mg/L)

[[record]]
molecule = "O=C(O)c1ccc2[nH]c3c(C(=O)c4ccccc4Br)nccc3c2c1"
value_units = "mg/L"
limit_qualifier = ">"
reported_measurement = 200

[[record]]
molecule = "O=C1c2ccccc2-[n+]2ccc3c([nH]c4ccccc43)c21.[Cl-] [FASCAPLYSIN CHLORIDE]"
value_units = "mg/L"
limit_qualifier = "="
reported_measurement = 0.78

[[record]]
molecule = "O=C(c1ccccc1Br)c1nccc2c1[nH]c1ccccc12"
value_units = "mg/L"
limit_qualifier = ">"
reported_measurement = 200

[[record]]
molecule = "O=C(c1ccccc1Br)c1nccc2c1[nH]c1ccc(Br)cc12"
value_units = "mg/L"
limit_qualifier = ">"
reported_measurement = 200

[[record]]
molecule = "CCCCNC(=O)c1ccc2[nH]c3c(C(=O)c4ccccc4Br)nccc3c2c1"
value_units = "mg/L"
limit_qualifier = ">"
reported_measurement = 200

[[record]]
molecule = "O=C1c2ccccc2-[n+]2ccc3c([nH]c4ccc(Br)cc43)c21.[Br-]"
value_units = "mg/L"
limit_qualifier = "="
reported_measurement = 0.098

[[record]]
molecule = "Cc1ccc2[nH]c3c(C(=O)c4ccccc4Cl)nccc3c2c1"
value_units = "mg/L"
limit_qualifier = ">"
reported_measurement = 200

[[record]]
molecule = "Cc1ccc2[nH]c3c4[n+](ccc3c2c1)-c1ccccc1C4=O.[Cl-]"
value_units = "mg/L"
limit_qualifier = "="
reported_measurement = 0.78

[[record]]
molecule = "NC(=O)c1ccc2[nH]c3c4[n+](ccc3c2c1)-c1ccccc1C4=O.[Br-]"
value_units = "mg/L"
limit_qualifier = "="
reported_measurement = 200

[[record]]
molecule = "NC(=O)c1ccc2[nH]c3c(C(=O)c4ccccc4Br)nccc3c2c1"
value_units = "mg/L"
limit_qualifier = ">"
reported_measurement = 200


---

# Activity annotations
- Test system: Staphylococcus aureus
- Experiment notes: Bactericidal activity against methicillin-resistant Staphylococcus aureus ATCC 4330 assessed as reduction in bacterial counts at 2X MIC within 0.5 hrs by time-kill kinetic assay
- Type: functional
Readout kind: Activity (log10CFU/ml)

[[record]]
line_notation = "O=C1c2ccccc2-[n+]2ccc3c([nH]c4ccccc43)c21.[Br-]"
value_units = "log10CFU/ml"
reported_measurement = 0

[[record]]
line_notation = "Cc1ccc2[nH]c3c4[n+](ccc3c2c1)-c1ccccc1C4=O.[Br-]"
value_units = "log10CFU/ml"
reported_measurement = 1.7

[[record]]
line_notation = "CN[C@H](CC(C)C)C(=O)N[C@H]1C(=O)N[C@@H](CC(N)=O)C(=O)N[C@H]2C(=O)N[C@H]3C(=O)N[C@H](C(=O)N[C@H](C(=O)O)c4cc(O)cc(O)c4-c4cc3ccc4O)[C@H](O)c3ccc(c(Cl)c3)Oc3cc2cc(c3O[C@@H]2O[C@H](CO)[C@@H](O)[C@H](O)[C@H]2O[C@H]2C[C@](C)(N)[C@H](O)[C@H](C)O2)Oc2ccc(cc2Cl)[C@H]1O"
value_units = "log10CFU/ml"
reported_measurement = 0.1

[[record]]
line_notation = "O=C1c2ccccc2-[n+]2ccc3c([nH]c4ccc(Br)cc43)c21.[Br-]"
value_units = "log10CFU/ml"
reported_measurement = 2.4

[[record]]
line_notation = "O=C(Nc1cccc2ccccc12)c1ccc2[nH]c3c4[n+](ccc3c2c1)-c1ccccc1C4=O.[Br-]"
value_units = "log10CFU/ml"
reported_measurement = 1.9

[[record]]
line_notation = "O=C(O)c1ccc2[nH]c3c4[n+](ccc3c2c1)-c1ccccc1C4=O.[Br-]"
value_units = "log10CFU/ml"
reported_measurement = 0


---

- Experiment notes: Cytotoxicity against mouse RAW264.7 cells assessed as cell survival at 12.5 ug/ml incubated for 24 hrs by CCK-8 assay
- Format: toxicity, cell-based
- Assay context: at 12.5 µg/mL, read-out: Activity
Readout kind: viability at 24 h, 12.5 ug/ml (%)

[[record]]
line_notation = "O=C1c2ccccc2-[n+]2ccc3c([nH]c4ccccc43)c21.[Br-]"
value_units = "%"
reported_measurement = 91.7

[[record]]
line_notation = "Cc1ccc2[nH]c3c4[n+](ccc3c2c1)-c1ccccc1C4=O.[Br-]"
value_units = "%"
reported_measurement = 17.7

[[record]]
line_notation = "O=C1c2ccccc2-[n+]2ccc3c([nH]c4ccc(Br)cc43)c21.[Br-]"
value_units = "%"
reported_measurement = 72.3


---

- Experiment notes: Cmax in rat plasma at 3 mg/kg, iv
- Format: ADME, organism-based
- Parameters: dose 3 mg/kg, route iv
Readout kind: Cmax (ng/mL)

[[record]]
compound = "O=C1c2ccccc2-[n+]2ccc3c([nH]c4ccccc43)c21.[Cl-] [FASCAPLYSIN CHLORIDE]"
value_units = "ng/mL"
reported_measurement = 414


---

- System: Staphylococcus aureus
- Experiment notes: Antibacterial activity against methicillin-resistant Staphylococcus aureus ATCC 4330 after 16 to 18 hrs by microbroth dilution method
- Format: functional
- Assay context: time 16-18 hrs
Readout kind: MIC (µg/mL)

[[record]]
line_notation = "O=C1c2ccccc2-[n+]2ccc3c([nH]c4ccccc43)c21.[Br-]"
readout_kind = "MIC"
value_units = "µg/mL"
limit_qualifier = "="
reported_measurement = 0.39

[[record]]
line_notation = "Cc1ccc2[nH]c3c(C(=O)c4ccccc4Br)nccc3c2c1"
readout_kind = "MIC"
value_units = "µg/mL"
limit_qualifier = ">"
reported_measurement = 200

[[record]]
line_notation = "O=C(Nc1cccc2ccccc12)c1ccc2[nH]c3c4[n+](ccc3c2c1)-c1ccccc1C4=O.[Br-]"
readout_kind = "MIC"
value_units = "µg/mL"
limit_qualifier = "="
reported_measurement = 0.098

[[record]]
line_notation = "O=C(O)c1ccc2[nH]c3c4[n+](ccc3c2c1)-c1ccccc1C4=O.[Br-]"
readout_kind = "MIC"
value_units = "µg/mL"
limit_qualifier = "="
reported_measurement = 6.25

[[record]]
line_notation = "O=C(Nc1cccc2ccccc12)c1ccc2[nH]c3c(C(=O)c4ccccc4Br)nccc3c2c1"
readout_kind = "MIC"
value_units = "µg/mL"
limit_qualifier = ">"
reported_measurement = 200

[[record]]
line_notation = "CCCCNC(=O)c1ccc2[nH]c3c4[n+](ccc3c2c1)-c1ccccc1C4=O.[Br-]"
readout_kind = "MIC"
value_units = "µg/mL"
limit_qualifier = "="
reported_measurement = 6.25

[[record]]
line_notation = "O=C(c1ccccc1Cl)c1nccc2c1[nH]c1ccccc12"
readout_kind = "MIC"
value_units = "µg/mL"
limit_qualifier = ">"
reported_measurement = 200

[[record]]
line_notation = "Cc1ccc2[nH]c3c4[n+](ccc3c2c1)-c1ccccc1C4=O.[Br-]"
readout_kind = "MIC"
value_units = "µg/mL"
limit_qualifier = "="
reported_measurement = 0.195

